Target: Methanococcus maripaludis chaperonin (MmCpn)
Experiment: High-Throughput Screening for Modulators of Cytosolic Chaperonin Activity: MmCpn Primary Screen (AID 488978);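 further: 50 nM MmCpn enzyme hydrolysing 30 µM ATP at 37 °C; 0% is about no effect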
Conditions: Purified MmCpn ATPase activity, ADP HTRF detection, 10 min; series mostly up to 76.9 µM
Active and inactive are the calls of the source. The call rests on the fitted dose curve; in most records, active means well fitted curve in the direction sought with a large enough effect; inconclusive means small, poorly fitted or top-dose-only effect, or another doubt; inactive means no such curve, though single readings can be large or run the other way.
measured_parameter: outcome

The cases that follow already have their outcome on record.
>>> df
                                   molecule  measured_parameter  reported_value
0                 Nc1nc2ccc(OC(F)(F)F)cc2s1             outcome        inactive
1                    CNC[C@H](O)c1cccc(O)c1             outcome        inactive
2                     O=c1[nH]cnc2[nH]ncc12             outcome        inactive
3  Cc1cccc(-c2[nH]c(C(C)(C)C)nc2-c2ccc3nccnc3c2)n1             outcome        inactive
4                            NC(=O)c1cnccn1             outcome        inactive

Query :: Give outcome; test system Methanococcus maripaludis chaperonin (MmCpn); molecule N=c1nc(N2CCCCC2)cc(N)n1O
Result :: inactive

Query :: Consider the molecule N[C@@H]1CONC1=O tested on Methanococcus maripaludis chaperonin (MmCpn); state its outcome.
Result :: inactive

Query :: State, for Methanococcus maripaludis chaperonin (MmCpn), measured outcome of the molecule listed here: CCn1cc(C(=O)O)c(=O)c2cc(F)c(N3CCNC(C)C3)c(F)c21 (stereo unspecified)
Result :: inactive

Query :: Report value: outcome, system: Methanococcus maripaludis chaperonin (MmCpn), molecule: CCC(C)N(C)C(=O)c1cc2ccccc2c(-c2ccccc2Cl)n1 (stereo unspecified)
Result :: inactive

Query :: Send back Methanococcus maripaludis chaperonin (MmCpn) outcome of Cc1cnc(NC(=O)C2=C(O)c3ccccc3S(=O)(=O)N2C)s1 only.
Result :: inactive

Query :: Print Methanococcus maripaludis chaperonin (MmCpn) outcome for Cc1ccc(N(CC2=NCCN2)c2cccc(O)c2)cc1 .
Result :: inactive

Query :: Give measured outcome for CCN(CC)CCCC(C)Nc1ccnc2cc(Cl)ccc12 (stereo unspecified) (Methanococcus maripaludis chaperonin (MmCpn)).
Result :: inactive

Query :: Provide measured outcome on Methanococcus maripaludis chaperonin (MmCpn) for O=C(Nc1nc2ccccc2n1CCN1CCOCC1)c1cccc([N+](=O)[O-])c1 please.
Result :: inactive

###

Test: Quantitative High-Throughput drug screen in 47 multiple myeloma cell lines against the NCATS MIPE library collection: KMM1_JCRB cell viability assay (AID 1918960); further: nearly all actives have a fitted effect of over 30% in size
Conditions: KMM1 myeloma viability, CellTiter-Glo ATP luminescence, 48 h; series mostly up to 45.8 µM
Results filed as inconclusive are left out. Active and inactive are the calls of the source. Calls follow the shape of the dose curve; as a rule, active = well fitted cell-killing curve with a large enough effect; inconclusive = small, poorly fitted or top-dose-only effect, or effect the other way; inactive = no such curve, though single readings can be large or run the other way.
Hi there, use one of these labels in your reply, thanks! class 1 for active, class 0 for inactive

Query :: Could you check what this test reported for O=C1CCc2cc(OCCCCc3nnnn3C3CCCCC3)ccc2N1 ?
Result :: class 0

Query :: Record lookup: outcome of this test for O=C1[C@H](Cc2ccc(O)cc2)N2C(=O)CCN(C(=O)NCc3ccccc3)[C@H]2CN1Cc1cccc2ccccc12 ?
Result :: class 0

Query :: Hey, what did the test say about CNC(=O)c1ccc(C)c(-n2c(C)cc(OCc3ccc(F)cc3F)c(Br)c2=O)c1 ?
Result :: class 1

Query :: How did this test come out for Nc1nc2c(ncn2COCCO)c(=O)[nH]1 ?
Result :: class 0

Query :: Short answer needed: outcome of this test for CCOc1cc(N2CCC(O)CC2)ccc1Nc1ncc2c(n1)N(C)c1ccccc1C(=O)N2C ?
Result :: class 1
